Data provenance is paper PMC4865820.

Test system: K. pneumonia 4299
ASSAY PROTOCOL: Checkerboard assay
Format: cell-based, K. pneumoniae
EXPERIMENTAL ENDPOINT: Fractional Inhibitory Concentration Index of B2088 with the antibiotic
A bare number is all that is needed in reply.

Worked examples, 2 compounds total:
{"COMPOUND": "COc1c(N2CCNC(C)C2)c(F)cc2c(=O)c(C(=O)O)cn(C3CC3)c12 (stereo not shown) [Gatifloxacin]", "STUDY TARGET": "K. pneumonia 4299", "VALUE OBSERVED": 0.56}
{"COMPOUND": "O=C(N[C@H](CO)[C@H](O)c1ccc([N+](=O)[O-])cc1)C(Cl)Cl [Chloramphenicol]", "STUDY TARGET": "K. pneumonia 4299", "VALUE OBSERVED": 0.38}

Fill in the blank: the reported Fractional Inhibitory Concentration Index of B2088 with the antibiotic of CNC(C)C1CCC(N)C(OC2C(N)CC(N)C(OC3OCC(C)(O)C(NC)C3O)C2O)O1 (stereo not shown) [Gentamicin] is ____.
0.37

Fill in the blank: the reported Fractional Inhibitory Concentration Index of B2088 with the antibiotic of NC[C@H]1O[C@H](O[C@H]2[C@H](O)[C@@H](O[C@H]3O[C@H](CO)[C@@H](O)[C@H](N)[C@H]3O)[C@H](N)C[C@@H]2N)[C@H](N)C[C@@H]1O [Tobramycin] is ____.
0.25
